Recorded measurements of Emax, one per entry
- study-system: soluble guanylate cyclase (sGC) (Homo sapiens (Human), UniProt Q02108+Q02153)
- Sequence (Q02153 whole entry): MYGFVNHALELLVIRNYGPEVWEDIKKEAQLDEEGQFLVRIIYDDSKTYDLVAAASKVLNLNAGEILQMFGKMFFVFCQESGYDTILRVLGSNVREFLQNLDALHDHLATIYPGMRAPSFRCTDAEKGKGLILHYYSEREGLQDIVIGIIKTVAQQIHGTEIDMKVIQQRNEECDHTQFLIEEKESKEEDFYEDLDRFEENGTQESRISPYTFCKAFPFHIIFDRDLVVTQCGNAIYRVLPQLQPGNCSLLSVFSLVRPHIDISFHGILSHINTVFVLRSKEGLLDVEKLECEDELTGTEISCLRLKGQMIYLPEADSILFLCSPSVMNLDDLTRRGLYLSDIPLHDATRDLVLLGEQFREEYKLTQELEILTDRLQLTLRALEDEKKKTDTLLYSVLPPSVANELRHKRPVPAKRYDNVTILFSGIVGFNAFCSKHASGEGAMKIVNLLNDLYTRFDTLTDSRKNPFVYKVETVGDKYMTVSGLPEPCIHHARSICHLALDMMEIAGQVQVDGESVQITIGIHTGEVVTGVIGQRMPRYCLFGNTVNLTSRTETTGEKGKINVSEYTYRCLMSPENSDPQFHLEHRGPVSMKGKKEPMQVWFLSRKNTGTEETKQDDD
- Sequence (Q02108 whole entry): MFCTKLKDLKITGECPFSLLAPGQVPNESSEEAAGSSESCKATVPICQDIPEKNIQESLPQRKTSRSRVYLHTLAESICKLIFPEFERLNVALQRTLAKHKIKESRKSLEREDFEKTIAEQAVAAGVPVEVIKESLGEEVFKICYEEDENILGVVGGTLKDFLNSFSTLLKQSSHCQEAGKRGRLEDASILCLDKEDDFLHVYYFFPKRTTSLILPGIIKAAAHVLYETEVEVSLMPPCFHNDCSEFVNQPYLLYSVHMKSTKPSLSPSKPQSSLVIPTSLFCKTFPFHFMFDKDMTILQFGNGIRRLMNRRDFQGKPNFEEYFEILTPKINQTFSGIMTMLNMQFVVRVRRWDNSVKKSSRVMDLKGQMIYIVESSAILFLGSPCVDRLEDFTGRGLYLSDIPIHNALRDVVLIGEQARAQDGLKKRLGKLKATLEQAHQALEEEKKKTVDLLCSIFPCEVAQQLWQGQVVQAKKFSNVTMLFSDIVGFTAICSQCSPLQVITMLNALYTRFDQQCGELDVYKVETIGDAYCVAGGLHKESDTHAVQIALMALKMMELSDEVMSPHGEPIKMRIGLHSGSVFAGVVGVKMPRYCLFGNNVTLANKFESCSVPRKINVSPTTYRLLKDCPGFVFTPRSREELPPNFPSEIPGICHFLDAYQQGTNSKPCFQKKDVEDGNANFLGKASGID
- experimental-protocol: sGC-HEK-cGMP assay run with SNP incubation (HEK WC assay)
- Type: cell-based
- settings: read-out: HEK WC Assay (% Emax at 1 μM with 10 uM SNP)

>  <compound>
CC(F)(F)C(=O)Nc1cnc(-c2cc(-c3ccon3)n(Cc3ccccc3F)n2)nc1N

>  <Emax>
40 to 60%

$$$$
>  <compound>
Nc1nc(-c2cc(-c3ccon3)n(Cc3ccccc3F)n2)ncc1NC(=O)C1(c2ccccc2)CCC1

>  <Emax>
40 to 60%

$$$$
>  <compound>
COc1ccccc1C(=O)Nc1cnc(-c2cc(-c3ccon3)n(Cc3ccccc3F)n2)nc1N

>  <Emax>
60 to 80%

$$$$
>  <compound>
C=C(C)C(=O)Nc1cnc(-c2cc(-c3ccon3)n(Cc3ccccc3F)n2)nc1N

>  <Emax>
40 to 60%

$$$$
>  <compound>
CC(C)(Oc1ccccc1)C(=O)Nc1cnc(-c2cc(-c3ccon3)n(Cc3ccccc3F)n2)nc1N

>  <Emax>
10 to 20%

$$$$
>  <compound>
CC(C)=CC(=O)Nc1cnc(-c2cc(-c3ccon3)n(Cc3ccccc3F)n2)nc1N

>  <Emax>
60 to 80%

$$$$
>  <compound>
O=S(=O)(c1ccc(F)cc1)c1cnc(-c2cc(-c3ccon3)n(Cc3ccccc3F)n2)nc1O

>  <Emax>
20 to 40%

$$$$
>  <compound>
Nc1nc(-c2cc(-c3ccon3)n(Cc3ccccc3F)n2)ncc1NC(=O)c1ccccc1F

>  <Emax>
80 to 100%

$$$$
>  <compound>
Nc1nc(-c2cc(-c3ccon3)n(Cc3ccccc3F)n2)ncc1NC(=O)c1ccc(Cl)cc1

>  <Emax>
60 to 80%

$$$$
>  <compound>
CN(C)C(=O)Oc1cnc(-c2cc(-c3ccon3)n(Cc3ccccc3F)n2)nc1

>  <Emax>
20 to 40%

$$$$
>  <compound>
CC(C)(C)C(=O)Nc1cnc(-c2cc(-c3ccon3)n(Cc3ccccc3F)n2)nc1

>  <Emax>
20 to 40%

$$$$
>  <compound>
Oc1nc(-c2cc(-c3ccon3)n(Cc3ccccc3F)n2)ncc1Cl

>  <Emax>
20 to 40%

$$$$
>  <compound>
CN(C)/C=N/c1cnc(-c2cc(-c3ccon3)n(Cc3ccccc3F)n2)nc1

>  <Emax>
20 to 40%

$$$$
>  <compound>
CC1(C(=O)Nc2cnc(-c3cc(-c4ccon4)n(Cc4ccccc4F)n3)nc2N)CC1(F)F (stereo not shown)

>  <Emax>
80 to 100%

$$$$
>  <compound>
Fc1ccccc1Cn1nc(-c2ncccn2)cc1-c1ccon1

>  <Emax>
40 to 60%

$$$$
>  <compound>
c1cnc(-c2cc(-c3ccon3)n(Cc3cnccn3)n2)nc1

>  <Emax>
0 to 10%

$$$$
